Experiment: modulators of S6 phosphorylation in cells, primary screen, cell-based, A549, cytoblot, luminescence, serum-stimulated (AID 1158);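 note: serum-stimulated A549 lung adenocarcinoma cells; signal is phosphorylated S6 detected by cytoblot immunostaining with HRP secondary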
Details: A549 phospho-S6 cytoblot, 5 h, higher = more signal
property: z-score
Would you mind answering with just the numeric figure?

Given O=C(c1ccccc1)N1C(=O)[C@]2(COC(c3ccc(OCCCO)cc3)=N2)Cc2ccccc21 , state its recorded z-score. -0.394

Returns the measured z-score for the input compound. Input: COCCOC(=O)N1C(=O)[C@@]2(c3cc(C#Cc4ccc(OC)cc4)ccc31)[C@H](c1ccccc1OCCO)N1[C@H](c3ccccc3)[C@H](c3ccccc3)OC(=O)[C@H]1[C@@H]2C(=O)NC[C@H](O)c1ccccc1 -0.325

Need z-score of O=C(c1ccccc1)N1Cc2ccccc2C[C@@]2(COC(c3ccc(OCCCO)cc3)=N2)C1=O , thanks. -0.107

Which z-score is listed for COC(=O)[C@H](Cc1ccccc1)N[C@@H](/C=C/C1CC1)[C@H](O)Cc1ccccc1 ? -0.162

z-score for COC(=O)[C@@]1(Cc2ccc(OC)cc2)[C@H]2c3cc(C(=O)N(C)C)n(CCc4ccccn4)c3C[C@H]2CN1C(=O)c1ccccc1 ? -0.334

Can you share its z-score? I mean this compound: COc1ccc([Si](C)(C)[C@H]2[C@H](CCO)O[C@@]3(C(=O)N(Cc4ccc(N(C=O)c5ccccc5)cc4)c4ccccc43)[C@@H]2C)cc1 0.788

Returns the measured z-score for the input compound. Input: C=C[C@H](CO)NS(=O)(=O)c1ccc(Br)cc1 0.0242

Please look up its z-score: COCCOC(=O)N1C(=O)[C@@]2(c3ccccc31)[C@H](c1ccccc1OCCO)N1[C@H](c3ccccc3)[C@H](c3ccccc3)OC(=O)[C@H]1[C@@H]2C(=O)N1CCN(c2ncccn2)CC1 -0.248

I am curious: what z-score value has been reported for C=C(COC)/C(=C/C[C@@H](OC(=O)c1ccncc1)c1ccc(CO)o1)c1cc(C(=O)OC)ccc1OC ? 0.934

Can you look up the measured z-score of C=C(CCCC)/C(=C/C[C@H](OC(C)=O)c1ccccc1OCCO)c1cc(C(=O)OC)ccc1OC for me? 0.708

So what's the measured z-score for this one? O=C1c2ccccc2[C@](Cc2ccccc2I)(C(=O)NCC(F)(F)F)[C@H](c2ccc(CO)cc2)N1Cc1ccccc1Cl 0.312

# z-score lookup, item C[N+](C)(C)CCCCCCNC(=O)[C@@H]1C[C@@H]2C(=O)N[C@@H](Cc3ccccc3)C(=O)N2[C@@H]1c1cccc(OCCO)c1 0.0757

Consider the compound CCCC[C@H]1OB(O)C[C@H]2C1=C(COC)C[C@H]1C(=O)N(C)C(=O)[C@H]12 and give its measured z-score. -0.18

Item under review: CNS(=O)(=O)c1ccc(C)cc1 . Reported z-score? 0.929

Give its z-score value. Item: C=C(CCCC)/C(=C/C[C@H](OC(=O)c1ccncc1)c1ccccc1OCCO)c1cnc2ccccc2c1 0.0376

Please report the recorded z-score for CCCCCN1CC=CC23O[C@@H]4/C=C\CCC(C)OC(=O)C4[C@H]2C(=O)N(C(C)CO)[C@@H]3C1=O (stereo partly specified) . -0.0749

---

Experiment: small-molecule microarray binders of probe aEGFR, primary screen, biochemical, biotinylated probe, 635/667 nm fluorescence (AID 1097);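 note: probe is a biotinylated anti-EGFR antibody binding compounds printed on slides; score combines fluorescence near 667 nm and signal to noise of each spot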
Conditions: higher = more signal
What composite z-score was measured for each of the following?
Respond using a number only.

Bench note: what composite z-score did COCCOC(=O)N1C(=O)[C@@]2(c3cc(C#CCC(C(=O)OC)C(=O)OC)ccc31)[C@H](c1ccccc1OCCO)N1[C@H](c3ccccc3)[C@H](c3ccccc3)OC(=O)[C@H]1[C@@H]2C(=O)N1CCN(c2ncccn2)CC1 show? 0.032

What does the data say about its composite z-score? Entry: COC(=O)C[C@H]1O[C@]2(C(=O)N(C)c3ccccc32)[C@@H](C)[C@@H]1[Si](C)(C)F -0.132

composite z-score lookup needed for NC(=O)NCC#Cc1ccc2c(c1)[C@]1(C(=O)N2)[C@H](C(=O)Nc2nc3ccccc3s2)[C@H]2C(=O)O[C@H](c3ccccc3)[C@H](c3ccccc3)N2[C@@H]1c1ccccc1OCCO , thanks. 0.506

---

Target: Alpha-bungarotoxin (Bungarus multicinctus)
Experiment: alpha-bungarotoxin binders on microarray, profiling panel, artefact control for SMM control protein annotation, biochemical, small-molecule microarray, Alexa647 label, 635/667 nm fluorescence (AID 1117)
Details: alpha-BTX-A647 binding fluorescence, higher = more signal
Decision: composite z-score >= 0.3 yields TRUE, all other cases yield FALSE.

Please check the record CC#CC(=O)Oc1ccccc1C=CC(=O)OCC and state if its composite z-score is at or above 0.3. FALSE

Hello, I need to know if CN(C)CCCCCCNC(=O)[C@@H]1C[C@@H]2C(=O)N[C@@H](Cc3ccccc3)C(=O)N2[C@@H]1c1ccc(O)cc1 has measured composite z-score not below 0.3. Thanks! TRUE

Form field: composite z-score at least 0.3? Entry: [N-]=[N+]=NCc1ccccc1[C@@H]1OC(c2ccc(OCCCO)cc2)=N[C@]1(Cc1ccccc1)C(=O)NCC(O)CO (stereo partly specified) TRUE

Answer whether composite z-score of CCCC[C@@H]1C[C@H]1[C@@H](NC(=O)c1ccco1)c1ccc(-c2ccccc2)cc1 is greater than or equal to 0.3. FALSE

Does O=C(N1CCCCC1)[C@]1(Cc2ccccc2)N=C(c2ccc(OCCCO)cc2)O[C@@H]1c1ccccc1 have a reported composite z-score of at least 0.3? TRUE

Assess whether reported composite z-score for NCCCCCNC(=O)[C@@H]1C[C@@H]2C(=O)N[C@@H](Cc3ccccc3)C(=O)N2[C@@H]1c1ccc(O)cc1 sits at 0.3 or higher. TRUE

Check the entry COC(=O)[C@@]1(Cc2ccccc2)[C@H]2c3cc(C(=O)N(C)C)n(Cc4ccsc4Br)c3C[C@H]2CN1C(=O)c1ccccc1 : does composite z-score equal or exceed 0.3? TRUE

Decide: is the reported value of composite z-score for C=C[C@H](OC)[C@@H](OC(=O)Nc1ccc(OC)cc1)c1ccc(O)c(F)c1 equal to or greater than 0.3? FALSE

Is it the case that CN(C)CCCC[C@@H]1NC(=O)[C@H]2C[C@@H](C(=O)NCCCCCCN)[C@@H](c3ccc(O)cc3)N2C1=O has composite z-score reaching or exceeding 0.3? TRUE

Does CC(C)[Si](C#Cc1ccc(Oc2ccccc2)cc1)(O[Si](C#Cc1ccc(Oc2ccccc2)cc1)(C(C)C)C(C)C)C(C)C have a reported composite z-score of at least 0.3? FALSE

Exam item: decide whether the reported composite z-score for COC(=O)[C@@]1(Cc2ccc(OC)cc2)[C@H]2c3cc(C(=O)N4CCCC4)n(CCN4CNCC4=O)c3C[C@H]2CN1C(=O)c1ccccc1 is at least 0.3. FALSE

Check the entry CCC[C@@H]1C[C@@]1(CCC)[C@@H](NS(=O)(=O)c1cccc2cccnc12)c1ccc(Cl)cc1 : does composite z-score equal or exceed 0.3? TRUE

Check the entry O[C@@H](Cc1ccccc1)[C@H]1C2C=CCCC=C2CN1Cc1cccc(Cl)c1 (stereo partly specified) : does composite z-score equal or exceed 0.3? TRUE

Textbook exercise: given the entry O=C1C2C=CC(C(O)c3cc(C(F)(F)F)cc(C(F)(F)F)c3)N(n3cnnc3)C2C(=O)N1Cc1ccccc1 (stereo unspecified) , state whether its composite z-score is greater than or equal to 0.3. FALSE

Is composite z-score for C=CCNC(=O)[C@H]1[C@@H]2C(=O)O[C@@H](c3ccccc3)[C@@H](c3ccccc3)N2[C@@H](c2ccccc2OCCO)[C@]12C(=O)Nc1ccc(C#CCC(C(=O)OC)C(=O)OC)cc12 at or above 0.3? TRUE

Is reported composite z-score greater than or equal to 0.3 here: CCS[C@H]1[C@@H](C(=O)O)[C@H](c2ccc(C)cc2)N(S(=O)(=O)c2ccc(C)cc2)[C@@H]1CC TRUE

---

Assay: small-molecule microarray binders of probe aNog, primary screen, biochemical, biotinylated probe, 635/667 nm fluorescence (AID 1115);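 note: probe is biotinylated aNog protein used at 0.15 µg/mL for 1 h at 4 C; z-score combines 667 nm fluorescence of each spot with its signal to noise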
Details: higher = more signal
Is composite z-score at least -0.05? Then label 1. If not, label 0.

Could you please find out whether COCCOC(=O)N1C(=O)[C@@]2(c3cc(C#CCC(C(=O)OC)C(=O)OC)ccc31)[C@H](C(=O)N1CCN(c3ncccn3)CC1)[C@H]1C(=O)O[C@H](c3ccccc3)[C@H](c3ccccc3)N1[C@@H]2c1ccccc1OCCO has composite z-score that meets -0.05 or exceeds it? label 0

Identify whether the reported composite z-score of the following molecule is -0.05 or greater: CCCCCN1CC=CC23O[C@@H]4C=CCCOC(=O)C4[C@H]2C(=O)N(CCCCCO)[C@@H]3C1=O (stereo partly drawn) label 0

Kindly determine if composite z-score recorded for COCCOC(=O)N1C(=O)[C@@]2(c3cc(C#CCC(C(=O)OC)C(=O)OC)ccc31)[C@H](c1ccccc1OCCO)N1[C@H](c3ccccc3)[C@H](c3ccccc3)OC(=O)[C@H]1[C@@H]2C(=O)N1CCN(c2ncccn2)CC1 is above or exactly -0.05. label 1

Form field: composite z-score at least -0.05? Entry: CN1C=C(C(=O)OCCS(C)(=O)=O)C(C(=O)OCCS(C)(=O)=O)=CC(c2ccc(CO)cc2)=CC1C1CC1 (stereo not drawn) label 1

Identify whether the reported composite z-score of the following molecule is -0.05 or greater: C=CCNC(=O)[C@@H]1[C@H]2C(=O)O[C@H](c3ccccc3)[C@H](c3ccccc3)N2[C@H](c2ccc(O)cc2)[C@@]12C(=O)N(C(=O)OCCOC)c1ccc(C#CCNC(N)=O)cc12 label 1

composite z-score >= -0.05 for CCS[C@H]1[C@@H](C(=O)O)[C@H](c2ccc(C)cc2)N(S(=O)(=O)c2ccc(C)cc2)[C@@H]1CC ? label 1

Is the recorded value of composite z-score equal to or greater than -0.05 for this molecule? O=C1O[C@@H](c2ccccc2)[C@@H](c2ccccc2)N2[C@@H](c3ccccc3OCCO)[C@]3(C(=O)Nc4ccccc43)[C@@H](C(=O)Nc3nc4ccccc4s3)[C@H]12 label 1

Reported composite z-score reaches at least -0.05 for COC(=O)[C@@]1(Cc2ccc(F)cc2)[C@H]2c3cc(C(=O)N(C)C)n(Cc4ccccc4)c3C[C@H]2CN1C(=O)c1ccccc1 ? label 1

Dear colleague, could you confirm whether C=CCOC(=O)[C@H]1[C@@H]2C(=O)O[C@@H](c3ccccc3)[C@@H](c3ccccc3)N2[C@@H](c2ccc(OCCOC(=O)[C@@H]3C[C@@H]4C(=O)N[C@@H](CC(C)C)C(=O)N4[C@@H]3c3ccc(O)cc3)cc2)[C@]12C(=O)Nc1ccccc12 has composite z-score at or above -0.05? label 1

Hi, just wondering whether CCCCCCc1nc(-c2cc(C)c(OC)c(C)c2)cc2c1[Si](C(C)C)(C(C)C)OC2 shows composite z-score of -0.05 or higher. label 0

API: above_or_equal(metric=composite z-score, cutoff=-0.05) for item CC(C)C(=C=CC[C@@H](O)c1ccc(OCCO)cc1)C[C@@H](O)c1ccccn1 label 0

Is reported composite z-score greater than or equal to -0.05 here: CCC[C@@H]1C[C@@]1(CCC)[C@@H](NS(=O)(=O)c1cccc2cccnc12)c1ccc(Cl)cc1 label 1
